# system: truncated hTfR1 of SEQ ID NO:89 (human) (UniProt P02786)
# Sequence (P02786 other isoform, or with tags, fused parts or gaps limits assumed): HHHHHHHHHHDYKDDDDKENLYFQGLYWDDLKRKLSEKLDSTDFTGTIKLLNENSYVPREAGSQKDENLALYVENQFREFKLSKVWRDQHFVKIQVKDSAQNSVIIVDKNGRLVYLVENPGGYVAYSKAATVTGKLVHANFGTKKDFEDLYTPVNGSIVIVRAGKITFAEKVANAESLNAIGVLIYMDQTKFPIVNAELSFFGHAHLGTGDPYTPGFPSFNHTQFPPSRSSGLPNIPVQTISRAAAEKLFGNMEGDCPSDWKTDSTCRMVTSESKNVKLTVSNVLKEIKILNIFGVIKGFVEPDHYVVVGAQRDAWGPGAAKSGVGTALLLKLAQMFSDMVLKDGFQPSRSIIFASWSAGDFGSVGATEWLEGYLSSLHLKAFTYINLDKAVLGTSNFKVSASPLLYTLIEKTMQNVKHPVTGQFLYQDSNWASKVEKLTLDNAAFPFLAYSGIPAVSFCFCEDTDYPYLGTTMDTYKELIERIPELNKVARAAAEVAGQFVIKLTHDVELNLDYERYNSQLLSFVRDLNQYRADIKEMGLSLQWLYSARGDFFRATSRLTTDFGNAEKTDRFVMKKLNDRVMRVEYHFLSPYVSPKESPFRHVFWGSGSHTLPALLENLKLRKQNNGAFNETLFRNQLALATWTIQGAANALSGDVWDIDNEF
# protocol_notes: SPR, hTfR1 on CM5, bispecific molecule with scFv module injected
quantity_name: Kd (nM)
Response body: numeric value in nM, unit text excluded.

What does the record list as Kd for bispecific binding molecule (format of WO2022/258841) with h26D3 scFv module (bispecific antibody, part only; not given: Cargo antibody chains, linkers, domain order, V domains shown, not shown: another chain or arm of the molecule; large carriers; small tags and cut ends) VH: EVQLVQSGAEVKKPGSSVKVSCKASGYIFTDYNMDWVRQAPGQGLEWIGDINPDYDTTSYNEKFKGRATLTVDKSTSTAYMELSSLRSEDTAVYYCARGGYSGSSYYHPMDYWGQGTLVTVSS VL: DIQMTQSPSSVSASVGDRVTITCKSSQSLLYSTNQKNYLAWYQQKPGKAPKLLIYWASTRESGVPSRFSGSGSGTDFTLTISSLQPEDFATYYCQQYFIYPRTFGQGTKVEIK ? 10
